Target: T1, cynomolgus monkey CD73 (on transfected CHOK1 cells) (cynomolgus monkey, UniProt A0A2K5V5U7 27-549)
T1 construct: whole, on cells; also called CHOK1-cCD73; CHOK1-CCD73
T1 sequence: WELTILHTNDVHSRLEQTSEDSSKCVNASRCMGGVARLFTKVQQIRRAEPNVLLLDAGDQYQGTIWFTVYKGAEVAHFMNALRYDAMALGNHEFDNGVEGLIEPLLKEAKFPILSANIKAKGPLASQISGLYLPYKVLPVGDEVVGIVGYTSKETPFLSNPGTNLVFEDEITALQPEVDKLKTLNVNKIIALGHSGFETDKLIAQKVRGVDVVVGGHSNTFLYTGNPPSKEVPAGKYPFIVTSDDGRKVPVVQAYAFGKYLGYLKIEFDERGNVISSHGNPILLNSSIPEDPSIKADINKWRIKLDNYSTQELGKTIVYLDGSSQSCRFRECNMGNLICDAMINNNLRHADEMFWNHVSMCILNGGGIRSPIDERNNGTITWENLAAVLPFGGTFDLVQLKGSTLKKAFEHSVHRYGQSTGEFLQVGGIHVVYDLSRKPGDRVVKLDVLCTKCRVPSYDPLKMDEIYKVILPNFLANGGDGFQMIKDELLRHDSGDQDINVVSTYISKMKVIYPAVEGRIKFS
Experiment: FACS on CHOK1-cCD73 cells
measurement_label: EC50 (nM)

INSERT INTO assay_data (binder, measurement) VALUES
  ('mab030xhIgG1TM (clone 42A5A7), mouse-human chimeric anti-CD73 antibody (antibody, V domains shown, also called mAb030 chimeric antibody) VH: DIQLQESGPGLVKPSQSLSLTCSVTGYSITSRYYWNWIRQFPGNKLEWMGYITYDDNNNYNPSLKNRISITRDTSKNQFFLKLNSVTPEDTATYYCARGGWDPFLYWGQGTLVTVSA VL: DIQMTQSPASLSASVGETVTITCRASDNIYSYLAWYQQKQGKSLQLLVDSAKNLGEGVPSRFSGSGSGTQFYLKINSLQPEDFGVYYCQHYYGTPFTFGGGTKLELK', 0.8),
  ('mab032xhIgG1TM (clone 56F12H8), mouse-human chimeric anti-CD73 antibody (antibody, V domains shown, also called mAb032 chimeric antibody) VH: EVQLVESGGDLVKPGGSLKLSCAASGFTFSTHGMSWVRQTPDKRLEWVAIISSDRSDIDYTDNVKGRFTISRDNGKNTLYLQMSSLKSEDTAIYHCARHRGYDGFYYAMDYWGQGTSVTVSS VL: DILMTQSPSSLTVTAGEKVTMSCRSSQSLLNSGNQKNYLTWYQQRPGRPPKLLIYWASTRISGVPDRFAGSGSGTDFTLTISIVQAEDLAVYYCQNDYSYPLTFGSGTKLELR', 2.6),
  ('mab036xhIgG1TM (clone 66H6C12), mouse-human chimeric anti-CD73 antibody (antibody, V domains shown, also called mAb036 chimeric antibody) VH: QVQLQQSGAEVVKPGASVKISCKASGYVFSSYWINWVKQRPGKGLEWIGKIFPGNGDTDYNGNFKGKATLTADKSSSTAYMQLSSLTSEDSAVYFCAGFADWGQGTLVTVSA VL: DIQMTQSPSSLSASLGERVSLTCRASQDIGERLIWLQQEPDGTFKRLIYATSSLDSGVPKRFSGSSSGSDYSLTISRLESEDFVDYYCLQYASSPYTFGGGTKLEIK', 1.5);
